Tested on: HCT-116 colon
Experiment summary: NCI tumour cell line growth inhibition, 48 h
For each record, write down the corresponding TGI.

INSERT INTO assay_data (molecule, result) VALUES
  ('CC(C)(C)OC(=O)N1NC(c2ccccc2)CC1c1ccccc1 (stereo not drawn)', '> 100 µM');

Record TGI for all entries; do not skip any.
1. O=c1oc(-c2ccc(O)cc2)cc2cc(O)ccc12
2. COC(=O)CCC1(CCC(=O)OC)CCCCCCC(CCC(=O)OC)(CCC(=O)OC)C(=O)C1=O

Response:
1. 39 µM
2. > 100 µM

Items follow; give TGI for each.
1. Cc1nc2ccc(S(=O)(=O)NS(=O)(=O)c3ccc(-c4ccccc4)cc3)cc2c(=O)n1NS(=O)(=O)c1ccc(-c2ccccc2)cc1
2. COc1cc(C2=NN(C(C)=O)C(c3cc(OC)c(OC)c(OC)c3)C2)ccc1O (stereo not drawn)
3. O=C1CCCC/C1=C\c1ccc([N+](=O)[O-])cc1
4. COc1ccc(-c2c(C#N)c(N)nc(N3CCOCC3)c2C#N)cc1
5. COc1ccc(-c2c(-c3ccc(OC)cc3)n3c(=O)n(C)c(=O)n23)cc1

Response:
["> 100 µM", "> 73.6 µM", "25.7 µM", "65.2 µM", "> 100 µM"]

* * *

Assign TGI to each entry below.
System: SNB-75 CNS
Experiment summary: NCI tumour cell line growth inhibition, 48 h

The examples below pair each entry with its known result.
INSERT INTO assay_data (compound, result) VALUES
  ('Cc1ccc(/C=C2\NC(=S)NC2=O)cc1', '> 100 µM'),
  ('O=c1c2c(-c3ccccc3)c3ccccc3nc2cnn1-c1ccccc1', '> 100 µM'),
  ('CC(C)=NOC(=O)CNC(=O)C(Cc1ccccc1)NC(=O)C(C)NC(=O)OC(C)(C)C (configuration not stated)', '> 100 µM'),
  ('Clc1ccc(/C=C/c2ccc3ccccc3n2)cc1', '> 67.1 µM'),
  ('O=C(N/N=C\c1cccc2ccccc12)Nc1ccccc1', '> 100 µM');

// batch mode: one TGI value per listed entry
1. Nc1ccc(-c2nc3ccc(F)cc3s2)cc1Cl
2. c1ccc2cc3c(NC4=NCCO4)cccc3cc2c1

Response:
1: > 59.9 µM; 2: > 100 µM

* * *

Test system: A549 NSCLC
Experiment summary: NCI tumour cell line growth inhibition, 48 h
Recorded endpoint: TGI

Examples with their reported TGI follow.
INSERT INTO measurements (compound, recorded_endpoint, result) VALUES
  ('Cc1cn(-c2cccc(NC(=O)c3ccc(C)c(Nc4nccc(-c5cccnc5)n4)c3)c2)cn1', 'TGI', '3.34 µM'),
  ('C/C(=N\NC(=O)c1ccc(Cl)cc1)c1nc2ncccc2[nH]1', 'TGI', '> 100 µM'),
  ('Cn1c(=Nc2ccc(Cl)cc2)sc2ccccc21', 'TGI', '> 100 µM'),
  ('CCCN(CCC)c1ccc(C=O)c(Cl)c1', 'TGI', '> 100 µM');

Give one value of TGI per listed compound.
1. C[C@H]1C2Cc3cc(O)ccc3[C@@]1(C)CCN2CCc1ccc(N)cc1
2. N#CCCN(CCC#N)c1ccc(/C=C2\N=C(c3ccccc3)N(c3ccc(C(=O)O)cc3)C2=O)cc1
3. O=c1c2c(-c3ccccc3)c3ccccc3nc2cnn1-c1ccccc1
4. COc1ccc2c(c1)C(=O)/C(=C/c1cccc(OCC(=O)Nc3nc(C)c(C)s3)c1)O2

Response:
1: > 100 µM; 2: > 100 µM; 3: > 100 µM; 4: 2.41 µM

State recorded TGI for all listed compounds.
1. Cc1ccc(/C=C2\NC(=S)NC2=O)cc1
2. CCCCCCC(O)CC[C@H]1CCC[C@@H](C)N1 (some centres undefined)

Response:
> 100 µM
> 100 µM

State the recorded TGI for every item in the following list.
1. CCOc1ccc(N=C(NC(=O)c2ccccc2)SC)cc1
2. c1ccc2cc3c(NC4=NCCO4)cccc3cc2c1
3. c1ccc2c(c1)c1ccccc1n2Cn1c2ccccc2c2ccccc21
4. Cc1ccc(S(=O)(=O)c2nc(-c3ccccc3)oc2S(C)(=O)=O)cc1

Response:
1. > 100 µM
2. > 100 µM
3. > 100 µM
4. 27.3 µM
